Assay: Cytotoxicity in human HeLa cells assessed as cell viability after 72 hrs
Type: cell-based
Entries annotated with measured CC50 at 72 h
Give a bare numeral; the unit µM is implied.

Below, each entry is followed by its recorded CC50 at 72 h result.
Just so you know, measured CC50 at 72 h for O=C(c1ccccc1)c1cc(Cl)ccc1NC(=O)C(c1ccccc1)N1CC[S+]([O-])CC1 (racemic) came out at 71

// CC50 at 72 h value for O=C(c1ccccc1)c1cc(Cl)ccc1NC(=O)C(c1ccc(-c2ccccc2)cc1)N1CCN(CCO)CC1 (racemic) : 16

Lookup result for O=C(c1ccccc1)c1cc(Cl)ccc1NC(=O)C(c1ccc2ccccc2c1)N1CCN(CCO)CC1 (racemic) ; measured CC50 at 72 h: 17

Given item O=C(c1ccccc1)c1cc(Cl)ccc1NC(=O)C(c1ccccc1)N1CCOCC1 (racemic) , the value recorded as its CC50 at 72 h is 39

Value of CC50 at 72 h reported for the molecule O=C(c1ccccc1)c1cc(Cl)ccc1NC(=O)C(c1ccccc1)N1CCCCC1 (racemic) is 63

Further cases:
// field: CC50 at 72 h; key: NC(=O)CN1CCN(C(C(=O)Nc2ccc(Cl)cc2C(=O)c2ccccc2)c2ccccc2)CC1 (racemic) ; value = 65

Sure, the documented CC50 at 72 h for Cl.NC(C(=O)Nc1ccc(Cl)cc1C(=O)c1ccccc1)c1ccccc1 (racemic) is 37
